tested on: UACC-62 melanoma; assay: NCI tumour cell line growth inhibition, 48 h; in the data active means GI50 below about 0.43 µM; inactive means the rest
Tick one outcome: active, inactive

Data request: Dear all, I need the recorded test outcome for COC(C(=O)C(O)C(C)O)C1Cc2cc3cc(OC4CC(OC(C)=O)C(OC5CC(O)C(OC)C(C)O5)C(C)O4)cc(O)c3c(O)c2C(=O)C1OC1CC(OC2CC(OC3CC(C)(O)C(OC(=O)C(C)C)C(C)O3)C(O)C(C)O2)C(O)C(C)O1 (stereo unspecified) , thank you.
Data returned: active

Data request: Try the compound `COc1ccc(-c2nnc(SCC(=O)Nc3ccc(/C(C)=N\O)cc3)n2-c2ccccc2)cc1OC`
Data returned: inactive

Data request: Try the compound CC1=CCC(OC(=O)C(C)(C)CCC(O)(C(=O)OC2(C(C)C)CCC3(C)OC3C2)C(C)C)(C(C)C)CC1 (stereo unspecified)
Data returned: active

Data request: Try the compound CCc1cccc2c3c(sc12)C(c1ccc(Cl)cc1)C(C#N)=C(N)O3 (stereo unspecified)
Data returned: active

Data request: Try the compound `C[C@]12CC[C@@H]3c4ccc(O)cc4CC[C@H]3[C@@H]1CC[C@@H]2NS(=O)(=O)c1cccc(C(F)(F)F)c1`
Data returned: inactive

Data request: Try the compound `CN(C)c1ccc(-c2cc(-c3ccc(Nc4nc(Nc5ccccc5)nc(Nc5ccc(Cl)cc5)n4)cc3)nc(N)n2)cc1`
Data returned: inactive

====

test system: DU-145 prostate; assay: NCI tumour cell line growth inhibition, 48 h
Task for the reader: assign each of the following molecules its reported TGI.

Data request: Returns the measured TGI for the input molecule. Input: `O=c1c2c(c1=O)C1(SCCCS1)c1cc(Cl)ccc1O2`
Data returned: > 100 µM

Data request: Try the molecule `CCN(CCCN(CC)C(=O)Nc1ccccc1)C(=O)Nc1ccccc1`
Data returned: > 100 µM

Data request: Try the molecule CCO[C@@H]1CCC(S(=O)c2ccc(C)cc2)=CO1 (stereo not given in full)
Data returned: > 100 µM

Data request: Try the molecule `COc1ccc(C/C(C)=C(\c2ccc(OCCN3CCOCC3)cc2)c2ccc(OC(=O)Cc3ccccc3)cc2)cc1`
Data returned: 20.4 µM

Data request: Try the molecule `Nc1ccc2nc3ccc(N)cc3[n+](-c3ccccc3)c2c1`
Data returned: > 100 µM

Data request: Try the molecule `CN(C)c1ccc(-c2cc(-c3ccc(Nc4nc(Nc5ccccc5)nc(Nc5ccc(Cl)cc5)n4)cc3)nc(N)n2)cc1`
Data returned: 21.4 µM

Data request: Try the molecule `COc1cc(NCc2ccc3nc(-c4ccccc4)c(N)nc3c2)cc(OC)c1OC`
Data returned: 99.6 µM

Data request: Try the molecule `c1ccc(-c2ccc(-c3cc4ccccc4[nH]3)cc2)cc1`
Data returned: > 100 µM

Data request: Try the molecule `CN1CCN(c2nc(NCCCCNc3ccnc4cc(Cl)ccc34)c3ccccc3n2)CC1`
Data returned: 21.7 µM

Data request: Try the molecule CCN(CCNc1ccc(C)c2sc3cc(Cl)ccc3c(=O)c12)CC(C)O (stereo not given)
Data returned: 18.2 µM

Data request: Try the molecule `C=CCOc1ccc(/C(N=Nc2ccccc2)=N/NC(=O)c2ccccc2)cc1OC`
Data returned: > 100 µM

Data request: Try the molecule CN1CCN(c2cc3c(cc2F)c(=O)c(C(=O)O)cn3C2CC2)CC1CC#N (stereo not given)
Data returned: > 100 µM

Data request: Try the molecule `COc1cc2nc(-c3cccs3)nc(N3C(c4ccc(O)cc4)=NNC(=O)c4ccccc43)c2cc1OC`
Data returned: > 100 µM

Data request: Try the molecule Nc1ccc(C2NC(=O)Cc3c2ccc2ccccc32)cc1 (stereo not given)
Data returned: > 100 µM

Data request: Try the molecule `FC(F)(F)C(C1=NC(C(F)(F)F)(C(F)(F)F)N=C(N2CCOCC2)O1)C(F)(F)F`
Data returned: > 100 µM

Data request: Try the molecule CCN(CC)c1ccc(C2SCC(=O)N2c2ccc(NC(=O)c3ccc(N4C(=O)CSC4c4ccc(N(CC)CC)cc4)cc3)cc2)cc1 (stereo not given)
Data returned: > 100 µM

Data request: Try the molecule `C/C(=C\c1ccn(-c2ccc(N)c(F)c2)n1)[C@@H]1C[C@@H]2O[C@]2(C)CCC[C@H](C)[C@H](O)[C@@H](C)C(=O)C(C)(C)[C@@H](O)CC(=O)O1`
Data returned: 0.121 µM

Data request: Try the molecule `O=C(CCCCCCSc1nc(-c2ccccc2)cc(-c2ccccc2)n1)NO`
Data returned: 10.6 µM

Data request: Try the molecule `C=C(C)[C@@H]1CC[C@]2(C(=O)NCCNCCNCCN)CC[C@]3(C)[C@H](CC[C@@H]4[C@@]5(C)CC[C@H](O)C(C)(C)[C@@H]5CC[C@]43C)[C@@H]12`
Data returned: 30.1 µM

Data request: Try the molecule `Cc1nn(-c2ccccc2)c2c1CC(=O)Nc1ccccc1-2`
Data returned: > 100 µM

Data request: Try the molecule `COc1cc2c3c(n(CCCNCC(OC)OC)c(=O)c2cc1OC)-c1cc2c(cc1C3=O)OCO2`
Data returned: 13.7 µM

Data request: Try the molecule `CCCCCCC#Cc1ccccc1C#CCO`
Data returned: 36.3 µM

Data request: Try the molecule `C/C(=N\NC(=S)NC1CCCC1)c1ccccn1`
Data returned: > 43 µM

Data request: Try the molecule COC(=O)C12OC(C)(C(CC(=O)OC(C)(C)C)C1=O)C1C(=O)N(c3ccccc3)C(=O)C12 (stereo not given)
Data returned: > 100 µM

Data request: Try the molecule C=C1CC2(C[C@@H](c3ccccc3)O[C@@H](c3ccccc3)C2)OC1=O (stereo not given in full)
Data returned: 21.4 µM

Data request: Try the molecule `COc1ccc(-c2nnc(SCC(=O)Nc3ccc(/C(C)=N\O)cc3)n2-c2ccccc2)cc1OC`
Data returned: > 100 µM

Data request: Try the molecule `CCCCn1cnnc1NS(=O)(=O)c1cc(C)c(Cl)cc1SCC(=O)O`
Data returned: > 10 µM

Data request: Try the molecule CCc1cccc2c3c(sc12)C(c1ccc(Cl)cc1)C(C#N)=C(N)O3 (stereo not given)
Data returned: 11.4 µM

Data request: Try the molecule `NC(=O)NO`
Data returned: > 2500 µM

Data request: Try the molecule `CCOC(=O)c1sc2nc(SC)nc3c2c1NCN3c1ccc2c(c1)OCCCO2`
Data returned: > 100 µM

Data request: Try the molecule `CC(C)[C@@]12C[C@@H](OC(=O)COC(=O)/C=C/c3ccccc3)[C@@](C)(O1)[C@@H]1CC[C@@H](C)[C@H]1[C@@H]2OC(=O)/C=C/c1ccccc1`
Data returned: > 100 µM

Data request: Try the molecule `N#Cc1c(-c2ccc(Cl)cc2)c(C#N)c(=O)n(NS(=O)(=O)c2ccccc2)c1S`
Data returned: > 100 µM

Data request: Try the molecule `O=c1[nH]c(=O)n(COCCO)c2ccc(Br)cc12`
Data returned: > 100 µM

Data request: Try the molecule `CN(CC(=O)O)c1ccc(/C=C/c2ccnc3ccccc23)cc1`
Data returned: > 100 µM

Data request: Try the molecule O=C(O)C(O)Cc1ccccn1 (stereo not given)
Data returned: > 100 µM

Data request: Try the molecule O=C1CC(c2ccc3c(c2)OCO3)Nc2cc3c(cc21)OCO3 (stereo not given)
Data returned: 14.7 µM

Data request: Try the molecule `C=CC(C)(C)C(=C)C(=O)N(C)c1ccccc1I`
Data returned: > 100 µM

Data request: Try the molecule `CC(C)C[C@H](NC(=O)[C@H]1O[C@@H]1C(=O)O)C(=O)NCCc1ccc(O)cc1`
Data returned: > 100 µM

Data request: Try the molecule `CN(C)CCCNc1ncnc2nc[nH]c12`
Data returned: > 100 µM

Data request: Try the molecule O=C1/C(=C/c2ccc3c(c2)OCO3)CCC1CN1CCOCC1 (stereo not given)
Data returned: 29.6 µM
